- System: P. falciparum stage V gametocytes
- Set-up: BacTiter-Glo ATP luminescence viability of purified stage V gametocytes in 384-well plates, per cent inhibition versus DMSO
- experimentalContext: 48 h, 5 µM; inhibitor
Hit rate of the full screen: of about 13,000 compounds, about 3,200 (25%) showed an effect of 50% or more. The list shows a part of the results.
Exercise: for every item that follows, state its recorded % Inhibition.
Numbers only, in %.

For orientation, consider the following solved cases.
>  <compound>
CC(C)(C)c1ccc(NC(=O)c2ccc(CN3CCCN(CC4CCCCC4)CC3)cc2)cc1

>  <system>
P. falciparum stage V gametocytes

>  <% Inhibition [%]>
-70.52

$$$$
>  <compound>
C=CCn1c(Sc2ccc(C#N)c([N+](=O)[O-])c2)nnc1-c1ccc(OC)cc1

>  <system>
P. falciparum stage V gametocytes

>  <% Inhibition [%]>
28.83

$$$$
>  <compound>
Cc1c(C(=O)N2CCc3cc4nccc(N5CCN6CCC[C@H]6C5)c4cc32)cnn1-c1ccc(C#N)cc1

>  <system>
P. falciparum stage V gametocytes

>  <% Inhibition [%]>
14.04

$$$$
>  <compound>
CCCCn1c(Sc2ccc(C#N)c([N+](=O)[O-])c2)nnc1-c1cccc(Cl)c1

>  <system>
P. falciparum stage V gametocytes

>  <% Inhibition [%]>
86.95

$$$$
>  <compound>
O=[N+]([O-])c1ccc(NC(=NC2CCCc3ccccc32)Nc2ccccc2Br)c(O)c1 (centres unmarked)

>  <system>
P. falciparum stage V gametocytes

>  <% Inhibition [%]>
-2.666

$$$$

Here are 3 compounds. What values of % Inhibition were reported for them?
1. CCCCCCCN(Cc1ccc(OC(C)(C)C(=O)OCC)cc1)C(=O)Nc1ccc(Cl)cc1OCC
2. Cc1cccc(CNc2ncc(C)c(NCCC(=O)Nc3ccccc3)n2)c1
3. O=C(Nc1ccc2c(c1)CCN2C1CCN(Cc2ccc(F)cc2Cl)C1)c1ccco1 (centres unmarked)

1. 74.71
2. 47.31
3. -23.63

###

- System: P. falciparum stage V gametocytes
- Design: BacTiter-Glo ATP luminescence viability of purified stage V gametocytes in 384-well plates, per cent inhibition versus DMSO
- experimentalContext: 48 h, 5 µM; inhibitor
Hit rate of the full screen: of about 13,000 compounds, about 3,200 (25%) showed an effect of 50% or more. Some of the results follow.
Provide the recorded % Inhibition for the entries that follow.
One number for each entry, in %.

For orientation, consider the following solved cases.
>  <molecule>
O=C(NC1CCCCN(Cc2ccccc2O)C1)c1cc(F)cc(F)c1 (stereo not shown)

>  <% Inhibition, %>
24.3

$$$$
>  <molecule>
O=C(NC1CCN(Cc2ccccc2O)C1)c1cccc(C(F)(F)F)c1 (stereo not shown)

>  <% Inhibition, %>
-4.979

$$$$
>  <molecule>
O=S(=O)(NC1CCCCN(Cc2ccccc2O)C1)c1ccc(C(F)(F)F)cc1 (stereo not shown)

>  <% Inhibition, %>
-6.826

$$$$
>  <molecule>
Nc1cccc(CNCc2cccc(-c3cccc(-c4nc5ccc(F)cc5[nH]4)c3)c2)c1

>  <% Inhibition, %>
-20.24

$$$$
>  <molecule>
O=C(Nc1ccc(C(=O)N2CCN(CCN3CCN(c4cccc(C(F)(F)F)c4)CC3)CC2)cc1)c1ccc(C(F)(F)F)cc1

>  <% Inhibition, %>
-21.85

$$$$
>  <molecule>
Cc1cc(N2CCOCC2)nc2ccc(NC(=O)c3cccc([N+](=O)[O-])c3)cc12

>  <% Inhibition, %>
0.6281

$$$$
>  <molecule>
COc1ccc(CNCc2cccc(-c3cccc(-c4nc5ccccc5[nH]4)c3)c2)cc1

>  <% Inhibition, %>
-25.62

$$$$
>  <molecule>
NCc1ccc(CNCc2cccc(-c3cccc(-c4nc5ccccc5[nH]4)c3)c2)cc1

>  <% Inhibition, %>
74.49

$$$$

// batch mode: one % Inhibition value per listed entry
1. O=C(Nc1cccc(-c2ccc(-c3nc4ccc(F)cc4[nH]3)cc2)c1)Nc1ccc(Cl)c(Cl)c1
2. CCN(CC)CCCn1c(N)c(-c2nc3ccccc3[nH]2)c2nc(C#N)c(C#N)nc21

-66.79
117

Respectfully, I request % Inhibition for each entry included below.
1. O=C(NC1CCCCN(Cc2ccccc2O)C1)c1ccc(Cl)c(Cl)c1 (stereo not shown)
2. N#Cc1c(N)n(CCc2ccc(F)cc2)c2nc3ccccc3nc12
3. COc1ccc2nc(Nc3nc(-c4ccccn4)cs3)sc2c1
4. c1ccc(CNCc2cccc(-c3ccc(-c4nc5ccccc5[nH]4)cc3)c2)cc1
5. Fc1ccc2nc(Nc3nc(-c4ccccn4)cs3)sc2c1

1. -19.06
2. 44.22
3. 1.427
4. 26.72
5. 71.85

The reported measurements were obtained from paper PMC4552634.
